Experiment: Determination of logD (1-octanol / phosphate buffer pH 7.4)
Format: physicochemical
Conditions: 1-octanol/phosphate buffer, pH 7.4, pH 7.4, 1-octanol/phosphate buffer; read-out: Log D, pH 7.4
recorded endpoint: logD

Recorded results for 3 compounds are shown here.
C#Cc1c(F)ccc2cccc(-c3ncc4c(N5CCN(C(=O)/C=C/c6cc(C)nc(C)n6)[C@@H](CC#N)C5)nc(OC[C@@]56CCCN5C[C@H](F)C6)nc4c3F)c12    3.32
CO[C@@H]1CCN(C/C=C/C(=O)N2CCN(c3nc(OC[C@@]45CCCN4C[C@H](F)C5)nc4c(F)c(-c5cccc6ccc(F)c(Cl)c56)ncc34)C[C@@H]2CC#N)C1    2.97
N#CC[C@H]1CN(c2nc(OC[C@@]34CCCN3C[C@H](F)C4)nc3c(F)c(-c4cccc5ccc(F)c(F)c45)ncc23)CCN1C(=O)/C=C/CN1C[C@H]2C[C@@H]1CO2    2.54

a. Cc1cc(N)nc(C2Cc3nc(OC[C@@]45CCCN4C[C@H](F)C5)nc(N4CCN(C(=O)/C=C/C5CCN5C)[C@@H](CC#N)C4)c3CC2C)c1C(F)(F)F (mixture of isomers)
b. Cc1nsc(/C=C/C(=O)N2CCN(c3nc(OC[C@@]45CCCN4C[C@H](F)C5)nc4c3C[C@@H](C)[C@H](c3nc(N)cc(C)c3C(F)(F)F)C4)C[C@@H]2CC#N)n1
Choose between a and b : whose measured logD value is numerically larger? Give the chosen item's label as your response.
b
(b: 4.69, a: 3.09)
